Listed next: entries and their corresponding inhibition at 5 µM.
target: CK2α (Homo sapiens); construct: purchased Life Technologies (Invitrogen SelectScreen); Dyrk1A, Dyrk2 and CK2α in-house or gifts; experiment: CK2α kinase assay (counter screen); format: biochemical; details: read-out: percentage of inhibition CK2α
Sequence (P68400 whole entry): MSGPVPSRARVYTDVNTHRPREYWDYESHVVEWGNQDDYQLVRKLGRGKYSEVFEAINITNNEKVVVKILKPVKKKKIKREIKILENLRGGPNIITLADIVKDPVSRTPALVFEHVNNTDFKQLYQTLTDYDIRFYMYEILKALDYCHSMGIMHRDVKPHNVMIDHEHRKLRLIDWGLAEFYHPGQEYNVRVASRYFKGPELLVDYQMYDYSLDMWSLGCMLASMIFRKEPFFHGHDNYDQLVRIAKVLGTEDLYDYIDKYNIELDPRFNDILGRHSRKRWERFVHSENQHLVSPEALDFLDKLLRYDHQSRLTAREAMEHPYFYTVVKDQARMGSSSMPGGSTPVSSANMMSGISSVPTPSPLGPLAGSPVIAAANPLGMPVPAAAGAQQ
measured.endpoint: inhibition at 5 µM (%)

> print(dat)
                          smiles.input  assay.result
1   Cc1cc(-c2csc(-c3cccc(O)c3)c2)ccc1O            15
2     N#Cc1cncc(-c2csc(-c3cccnc3)c2)c1             3
3      Clc1cncc(-c2csc(-c3cccnc3)c2)c1            14
4        c1cncc(-c2csc(-c3cncnc3)c2)c1             0
5  c1cncc(-c2cc(-c3cncc4ccccc34)cs2)c1             6
6       Cc1cncc(-c2csc(-c3cccnc3)c2)c1             5
7  c1cncc(-c2cc(-c3cnc4ccccc4c3)cs2)c1            27
8       Fc1cncc(-c2csc(-c3cccnc3)c2)c1             0
9        Cn1cc(-c2csc(-c3cccnc3)c2)cn1           9.5
